System: MOLT-4 leukemia
Experiment: NCI tumour cell line growth inhibition, 48 h
Answer each item with its documented TGI.
One number for each entry, in µM.

Known results for molecules:
C[n+]1c(/C=C/c2c(O)ccc3ccccc23)ccc2ccccc21 = 23.4
COc1c(O)c2c(=O)cc3c4c5c(cc(=O)c6c(O)c(OC)c(CC(C)O)c(c(c1CC(C)O)c24)c65)OCO3 (stereo not given) = 4.44

Now look at this one.
Task: Find the measured TGI: item "CN1CCC(=O)/C(=C/c2ccccc2)C1" , target or system MOLT-4 leukemia.
Result: 34.3

* * *

Test system: TK-10 renal
Assay: NCI tumour cell line growth inhibition, 48 h
result.type: TGI

C[C@H](CCC(=O)O)[C@H]1CC[C@H]2[C@@H]3C(=O)C[C@@H]4C[C@H](O)CC[C@]4(C)[C@H]3C[C@H](O)[C@]12C = > 100 µM
CCOC(=O)c1cccc(N=Nc2nc[nH]c2/C=C/C(=O)OC)c1 = > 100 µM

Parameters: items (list). Returns: TGI for each item.
1. O=C(NCP(=O)(Oc1ccccc1)Oc1ccccc1)OCc1ccccc1
2. CNCCOC(=O)/C=C1\CC[C@H]2[C@@H]([C@@H](O)C(=O)[C@@H]3[C@]2(C)CC[C@H](O)[C@]3(C)C(=O)OC)[C@H]1C

Result:
1: > 100 µM; 2: 0.76 µM
